Origin of values: PubChem BioAssay (Tox21)

- Assay Procedure: qHTS RealTime-Glo MT Cell Viability Assay in HEK293 cells - 32 hour (AID 1224868); note: nearly all actives have a fitted effect of over 50% in size
- Measurement Conditions: RealTime-Glo luminescence; series mostly up to 76.8 µM
- Text: National Center for Advancing Translational Sciences [NCATS] NIH Chemical Genomics Center [NCGC] U.S. Environmental Protection Agency [EPA] National Institutes of Environmental Health Sciences [NIEHS] National Toxicology Program [NTP] U.S. Food and Drug Administration [FDA] Measure of cell viability is critical in the cell-base assay. Analysis of cell viability is necessary for the characterization of cell responses to cytotoxic drugs and environmental stress. […]
Results filed as inconclusive are left out. Active and inactive are the calls of the source. Calls come from the whole dose curve; as a rule, active = well fitted cell-killing curve with a large enough effect in the repeat runs; inconclusive = weak or mixed curves, or effect the other way; inactive = flat fitted curve, though single readings scatter.
Outcomes: TRUE (active), FALSE (inactive)

Molecule | Label
Cc1nc2ccccn2c(=O)c1CCN1CCC(C(=O)c2ccc(F)cc2)CC1 | TRUE
COc1cc2[nH]c(=O)[nH]c(=O)c2cc1OC | FALSE
Cc1oncc1C(=O)Nc1ccc(C(F)(F)F)cc1 | FALSE
O=C(O)C(Cc1cc(I)c(O)c(I)c1)c1ccccc1 (stereo unspecified) | FALSE
CC1(C)O[C@@H]2C[C@H]3[C@@H]4CCC5=CC(=O)C=C[C@]5(C)[C@H]4[C@@H](O)C[C@]3(C)[C@]2(C(=O)CO)O1 | FALSE
CCCCCCCCCOC(C)=O | FALSE
C[C@]12CCC(=O)C=C1C=C[C@@H]1[C@@H]2CC[C@@]2(C)[C@H]1CC[C@@]21CCC(=O)O1 | FALSE
CN(C)C(=O)Nc1ccc(Oc2ccc(Cl)cc2)cc1 | TRUE
C/C(=N/NC(=O)c1ccncc1)C(=O)O | FALSE
Cc1nc2ccccc2s1 | FALSE
COCC(O)CO (stereo unspecified) | FALSE
C[N+](C)(C)CCOC(N)=O | FALSE
NCC1CCCC(CN)C1 (stereo unspecified) | FALSE
CC(=O)CC(c1ccc([N+](=O)[O-])cc1)c1c(O)c2ccccc2oc1=O (stereo unspecified) | FALSE
CCCCCCOC(=O)C(C)C | FALSE
CC(C)CCCCCCOC(=O)CCCCC(=O)OCCCCCCC(C)C | FALSE
CC(C)(C)CC(C)(C)c1ccc(OCCO)cc1 | TRUE
C1COCO1 | FALSE
CCCCC(CC)CNCC(CC)CCCC (stereo unspecified) | FALSE
CCOC(=O)CC(=O)C(=O)OCC | TRUE
O=C(O)c1cccnc1C(=O)O | FALSE
C=CC(C)=CCC=C(C)C | FALSE
CCN(CC)CCNC(=O)c1ccc(NC(C)=O)cc1 | FALSE
CCCCCCCC/C=C\CCCCCCCC(=O)OC(CO)CO | FALSE
CC(=O)Nc1ccc(N)cc1 | FALSE
CC(=O)Oc1ccc(C(=C2CCCCC2)c2ccc(OC(C)=O)cc2)cc1 | FALSE
CCCCCCCC/C=C\CCCCCCCC(=O)OC | FALSE
CC[C@H](NC(=O)c1cc(F)ccc1NS(=O)(=O)c1cccc2cccnc12)c1ccccc1 | FALSE
Cc1ccc(S)cc1 | FALSE
CCCCCC=CCC=CCCCCCCCC(=O)OCC | FALSE
OC(CCCN1CCCCC1)(c1ccccc1)c1ccccc1 | FALSE
